Value source: ChEMBL document CHEMBL4316600

Target: Dual specificity mitogen-activated protein kinase kinase 1 (Homo sapiens)
Sequence (Q02750 whole entry): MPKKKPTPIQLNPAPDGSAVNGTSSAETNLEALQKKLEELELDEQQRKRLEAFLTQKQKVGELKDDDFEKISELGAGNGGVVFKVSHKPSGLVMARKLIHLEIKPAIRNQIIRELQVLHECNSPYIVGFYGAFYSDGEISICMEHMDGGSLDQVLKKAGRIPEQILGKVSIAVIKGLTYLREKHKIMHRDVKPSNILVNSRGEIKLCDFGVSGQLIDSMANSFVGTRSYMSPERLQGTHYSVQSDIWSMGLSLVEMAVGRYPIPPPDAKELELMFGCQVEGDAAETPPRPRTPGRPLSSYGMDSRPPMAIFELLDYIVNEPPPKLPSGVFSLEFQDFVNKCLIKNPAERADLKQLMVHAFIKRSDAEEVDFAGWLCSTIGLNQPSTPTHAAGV
Test: Inhibition of MEK1 (unknown origin)
PROPERTY LABEL: pIC50
One number for each entry, as −log10 of the molar value.

Illustrative cases are given below, each with its answer.
RECORD SMILES: O=C(NOCCCO)c1ccc(F)c(F)c1Nc1ccc(F)cc1F
pIC50: 6.92
//
RECORD SMILES: O=C(NOCCCO)c1ccc(F)c(F)c1Nc1ccc(Br)cc1F
pIC50: 8.11
//
RECORD SMILES: O=C(NOCCCO)c1ccc(F)c(F)c1Nc1ccc(I)cc1F
pIC50: 8.70

Attention now turns to another entry.
input: Look up and report measured pIC50 for this entry: `O=C(NOCCCO)c1ccc(F)c(F)c1Nc1ccc(Cl)cc1F`
output: 7.59
